SYSTEM_NAME: ClpB (Escherichia coli, UniProt P63284)
Construct: ClpB wild type
Sequence (P63284 whole entry): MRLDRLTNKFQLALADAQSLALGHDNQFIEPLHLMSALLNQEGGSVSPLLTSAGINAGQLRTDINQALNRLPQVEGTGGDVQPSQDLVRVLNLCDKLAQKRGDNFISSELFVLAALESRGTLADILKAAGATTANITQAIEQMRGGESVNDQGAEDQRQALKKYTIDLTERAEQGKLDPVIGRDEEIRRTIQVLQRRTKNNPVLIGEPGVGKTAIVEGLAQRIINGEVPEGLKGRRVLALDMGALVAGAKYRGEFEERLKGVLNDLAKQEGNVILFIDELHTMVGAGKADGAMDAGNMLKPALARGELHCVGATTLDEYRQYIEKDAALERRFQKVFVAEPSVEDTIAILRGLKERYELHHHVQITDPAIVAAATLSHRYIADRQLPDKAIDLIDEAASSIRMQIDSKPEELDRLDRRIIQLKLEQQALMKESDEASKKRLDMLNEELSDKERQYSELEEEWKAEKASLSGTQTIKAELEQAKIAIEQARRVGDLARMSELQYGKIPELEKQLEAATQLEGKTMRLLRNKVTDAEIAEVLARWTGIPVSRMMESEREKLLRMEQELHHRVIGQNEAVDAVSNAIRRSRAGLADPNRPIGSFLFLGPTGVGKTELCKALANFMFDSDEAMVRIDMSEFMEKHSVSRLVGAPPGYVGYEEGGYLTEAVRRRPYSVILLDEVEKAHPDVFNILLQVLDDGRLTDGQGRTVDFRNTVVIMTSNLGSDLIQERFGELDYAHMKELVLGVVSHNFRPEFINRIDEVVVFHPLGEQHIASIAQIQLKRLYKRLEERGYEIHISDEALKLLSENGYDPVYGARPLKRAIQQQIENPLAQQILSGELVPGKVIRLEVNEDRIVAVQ
RUN_DESCRIPTION: biochemical
Parameters: competition titration of nucleotide against preformed ClpB-mantADP complex, mantADP fluorescence
STATED_CONDITIONS: competition with 1.25 uM mantADP; read-out: Knuc (WT)
Recorded Kd by entry

MOLECULE	Kd [µM]
Nc1ncnc2c1ncn2[C@@H]1O[C@H](CO[P@](=O)(O)O[P@](=O)(O)O[P@@](=O)(O)S)[C@@H](O)[C@H]1O [ATPγS]	8.1
Nc1ncnc2c1ncn2[C@@H]1O[C@H](COP(=O)(O)OP(=O)(O)O)[C@@H](O)[C@H]1O [ADP]	7.6
